# Tested on: LXRb homodimer (NR concentration 270 nM)
# assay comment: PBM binding z-score (relative to random genomic background probes); higher = stronger binding; sequences stand for … in GC…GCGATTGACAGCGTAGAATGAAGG
Label scheme for PBM binding z-score: lower than 0.1 is FALSE, 0.1 and above is TRUE.

**Query** Has CGTCCAAGGTCAAAGGTAAGTGAAGAGATGACGG a recorded PBM binding z-score greater than or equal to 0.1?
**Result** TRUE

**Query** Follow-up item: ACTAGTTGGTCAGCTGAGGTCACACGCAATTCGG
**Result** TRUE

**Query** Can you check AGAACGAGGGCAATGGGTTGATAGCACGGGTGGC next?
**Result** FALSE

**Query** Next sequence: ACAGAAAGGTGATGAAGGTAACTCAGGCTATCAT
**Result** FALSE

**Query** Likewise for CCCTACGGGTCACGAGGTTATAGCACGACGAGCG ?
**Result** FALSE

**Query** Continue with CCTAGCAGTCCAGGGTCACTCAAGCATTTCGCTT
**Result** FALSE

**Query** Next record, please: CTCGAAAGGTCGGTTGAGGTGAGTATCCGGATAA
**Result** FALSE

**Query** Another sequence to look at: ACACACAGGTGAGTGAAGGTAACTCAGCTGGACG
**Result** FALSE

**Query** What do you have for TCTGCTAGGTCAACGATGGCCAGCTAATCTGCTA ?
**Result** FALSE

**Query** Also CCTACTGGGCCAAAAAGGTCATTTATGCCGATAA ?
**Result** TRUE

**Query** // next record GCTGCTAGGTCAACTGATGGTTAGCTAAAGCTCG
**Result** TRUE

**Query** Proceed to TCAGACACGTGAAGGTAACTCAGGTACGCAGTCG
**Result** FALSE

**Query** What do we get for GCATATAGGTAATACAAGGTGAAAGTCCGATTGT ?
**Result** FALSE

**Query** Another: TCAGATAGGTGAAGGTAACTCAGGTACGCAGTCG
**Result** FALSE

**Query** Moving on to ATCTCTAGGTAAGACTCAGTTAAGTGAAGAACGC
**Result** TRUE

**Query** Try the sequence ATCGAAAGGTCGTCAGGTGAGTATACAGAAAGGC
**Result** TRUE

**Query** Would you kindly repeat that for ATCTCTAGGTAAAGATAGTTCAGTGACTGCAAAT ?
**Result** TRUE

**Query** For GCTAGTTGGTCAGTCAAAGGTCACACACCGGTCG then?
**Result** TRUE

**Query** Please answer likewise for TCTTGTAGATCAGCAGGTCAAGAAAGCTGGCCAA
**Result** FALSE

**Query** Similarly, CTACCAAGGGGAACAAGGTCGTTGATTACTATTC ?
**Result** FALSE

**Query** Then CAAACTAGGTCACCGGAAGATCAAAGTCCGCATG ?
**Result** TRUE

**Query** // query: ATCTCTAGGTAAAACTCAGTTCAGTGAAGAACGC
**Result** TRUE

**Query** Proceed to AGAATGAGGTTACCAAAGATCAGGGTAACGCTTG
**Result** FALSE

**Query** Can you handle CCGAGTAGGTTATGGGGCATTTAGGCAACGGTGA next?
**Result** FALSE

**Query** Also CCAGACAGGTGAAAGGTAACTTAGTCTGGTACGC , if possible.
**Result** FALSE

**Query** ACTTACGGGTCAACGATGTTATAGCACGCGTATA ?
**Result** TRUE

**Query** What would you report for CCTCCGAGGACAACAGGAGGTCAGAGCTGCCAGA ?
**Result** FALSE

**Query** Please answer likewise for CGAACTAGGTCATTGACAGGACCGTGAATAGTAA
**Result** FALSE

**Query** Please do the same for CGAACTAGGTCAGAACAGGACAGGGAAGGATGAT as well.
**Result** FALSE

**Query** Again, but for TCATATAGGTAAATGCTAGGTGAAAGACCGATCT
**Result** FALSE

**Query** Continue with GCATATGGGTAATACAAGGTGAAAGTCCGATTGT
**Result** FALSE

**Query** Request: TCATATAGGTAAAGGTGAAATTCGAACGATATGA
**Result** TRUE

**Query** Next sequence: ATCGAAAGGTCGACGGTGAGTATACCCACCCGAA
**Result** TRUE

###

# System: LXRa:RXRa (NR concentration 270 nM, RXRa partner concentration 90 nM)
# assay comment: PBM binding z-score (relative to random genomic background probes); higher = stronger binding; sequences stand for … in GC…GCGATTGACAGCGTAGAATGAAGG
Entries are sorted into classes by PBM binding z-score as follows: bottom range (below 1), center range (1 to below 5), top range (5 or more)

**Query** Entry TCGAGTAAGTTACCAATGGGGCATTCAGCTTTCT belongs to which category?
**Result** bottom range

**Query** Next sequence up: GCTGCTAGGTCAACTGATGGTCAGATAAAGCTCG
**Result** center range

**Query** Repeat for the following sequence: TCTTGTAGATCAAGCGGGTTAAGAAAGCCTGAGT
**Result** bottom range

**Query** Another sequence: CGTCCAGGGTCAAGGTCAGTGAAAGAGACTCGAA
**Result** center range

**Query** Then this sequence: CAAACTAGGTCACCGAGGTCAAAGTCCGTGCGTA
**Result** top range

**Query** And for TCATATAGGTAAATGCCAGGTGAAAGTCCGATCT ?
**Result** center range

**Query** Now the sequence ATATGCAGGTTACATCCGGGTCATTCAGGCTATG
**Result** center range

**Query** For AATACCGGGTCACTAGGCCAGAGTAGGTACGAAT then?
**Result** center range

**Query** // repeat for GCTGCTAGGTCGGGTTGGTCAGCTAACGGGTACG and report
**Result** bottom range

**Query** Try this sequence too: CAACCTAGGTCAAGAGGTCAAAGTCCGCTTCCCG
**Result** top range

###

# Tested on: RARb:RXRa (NR concentration 270 nM, RXRa partner concentration 90 nM)
# assay comment: PBM binding z-score (relative to random genomic background probes); higher = stronger binding; sequences stand for … in GC…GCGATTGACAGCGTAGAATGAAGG
parameter: PBM binding z-score
Please state the value as a number alone, without comment.

**Query** GET /values?readout=PBM binding z-score&item= CCTACTGGGCCAAAAAGGACATTGATGCCGATAA
**Result** 0.68

**Query** Consider next the sequence ACTAGTTGGTCAGCTGAGGTCGCACACAATTCGG in the same way.
**Result** 1.91

**Query** Check TCAGACCGGTGAAGGTAACTCAGGTACGCAGTCG too.
**Result** 0.335

**Query** Let us now turn to TCTATTAGTTGATTAGGGCAACCCAAACAGCGGA
**Result** 0.917

**Query** One more sequence: CCGACTGGGGCAAGGTTACCATCACGCACAGCCA
**Result** 1.5

**Query** Follow-up entry: CCGACTGGGGCATAAGATTACCATAAGCCAGCCC
**Result** 0.112

**Query** What do you get for GGAACGAAGGCAAGTTGATAGCAGAGTTTGATGG ?
**Result** -0.503

###

# System: PPARg homodimer (NR concentration 180 nM)
# assay comment: PBM binding z-score (relative to random genomic background probes); higher = stronger binding; sequences stand for … in GC…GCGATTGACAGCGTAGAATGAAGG
parameter: PBM binding z-score
Simply state the number, no unit and no words.

**Query** Recorded PBM binding z-score of AGAATGAGGTTACCAAAGATCAGGTAAACGCTTG , please.
**Result** 0.758

**Query** Also check CTCGAAAGGTCGTGCTCAGGTGATTATACCAAAC
**Result** 2.1

**Query** Please do the same for TCGAGTAGGTTACTAATGGGGCATTCAGCTTTCT as well.
**Result** -0.0554

**Query** Same question for CCTAGGAGGCCAGGGTCACTCAAGCATTTCGCTT please.
**Result** 1.09

**Query** Next entry: ACTCGGAGGACGAAGGTCAGAGCTACGCCAGTGA
**Result** 1.01

**Query** Follow-up entry: ACTAGCAGGCCAACTTTGGGTCACTCAAACAAAG
**Result** 0.721

**Query** # repeat for GCTAGCAGGCCATTTGTGTCACTCAATGACGGGC
**Result** -0.822

**Query** // query: ACTATTAGTTGAGACGAGAGCAACCGATAGGTTG
**Result** 0.139

**Query** Note, next up: GCTAGCAAGCCATTTGGGTCACTCAATGACGGGC
**Result** -0.494

**Query** Moving on to the next sequence: TCTTGTAGACCAAGCAGGTTAAGAAAGCCTGAGT
**Result** -0.226

**Query** Next up: TCATATAGGTAAAGGTAAAAGTCGAACGATATGA
**Result** 0.454

**Query** One more sequence: TAACCAAGGTGAAAGGTCGTTGATGCACGCCTTG
**Result** 2.72

**Query** Please give the result for GCTAGCAGGCCATTTGGGTCACCCAATGACGGGC too.
**Result** -0.136

**Query** What about this sequence? TCGAGTAGATTAGGGGCATTCAGAATGGCGTCGA
**Result** -0.958

**Query** Now consider TAGACTAGGTCATGCGGGCCAGTATAGTGTCGGC and answer again.
**Result** 0.793

**Query** Moving on to the next sequence: ACTTACGAGTCAACGAGGTTATAGCACGCGTATA
**Result** 0.175

**Query** Now consider TAGCCTAGGTCATTCAGGGCCCAGTATAGAAAGC and answer again.
**Result** 1.19

**Query** Next: AGTCAAAGTTCAGGACGCGGTAACGTAAAGCACG
**Result** 1.62
